Recorded measurements of % double-positive cells vs WT, one per entry
STUDY TARGET: T1, mTfR-1 S326A on Expi293 cells (mouse, UniProt Q62351 1-763)
T1 construct: whole, on cells
T1 sequence (Q62351 whole entry S326A): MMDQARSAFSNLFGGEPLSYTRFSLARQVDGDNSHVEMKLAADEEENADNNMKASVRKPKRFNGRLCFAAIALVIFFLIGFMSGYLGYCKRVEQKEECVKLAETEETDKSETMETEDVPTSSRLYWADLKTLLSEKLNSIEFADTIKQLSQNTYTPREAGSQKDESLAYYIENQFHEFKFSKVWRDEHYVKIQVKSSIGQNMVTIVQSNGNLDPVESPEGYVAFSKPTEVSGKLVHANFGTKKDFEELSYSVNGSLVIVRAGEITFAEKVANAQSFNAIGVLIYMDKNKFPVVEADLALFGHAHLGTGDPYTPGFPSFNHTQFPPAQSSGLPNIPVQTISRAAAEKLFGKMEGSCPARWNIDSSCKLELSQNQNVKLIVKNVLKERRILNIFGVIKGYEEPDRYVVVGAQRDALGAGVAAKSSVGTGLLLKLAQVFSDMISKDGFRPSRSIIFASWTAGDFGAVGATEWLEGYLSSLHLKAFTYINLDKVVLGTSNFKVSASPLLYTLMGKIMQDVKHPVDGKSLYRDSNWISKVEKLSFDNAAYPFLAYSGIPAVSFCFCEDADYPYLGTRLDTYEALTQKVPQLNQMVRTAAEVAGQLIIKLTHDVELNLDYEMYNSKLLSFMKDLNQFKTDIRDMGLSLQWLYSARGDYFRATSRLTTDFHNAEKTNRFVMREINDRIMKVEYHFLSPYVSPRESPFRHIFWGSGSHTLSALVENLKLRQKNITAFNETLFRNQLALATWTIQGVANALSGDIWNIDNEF
TEST METHOD NOTES: FACS, transfected Expi293 cells
Kindly provide the numeric value in % only, without the unit symbol.

>>> value_reported("Clone C VNAR-hFc fusion (Fc fusion, not shown: a dimerising Fc or GST, bivalent VNAR-Fc; also called Clone C-hFc) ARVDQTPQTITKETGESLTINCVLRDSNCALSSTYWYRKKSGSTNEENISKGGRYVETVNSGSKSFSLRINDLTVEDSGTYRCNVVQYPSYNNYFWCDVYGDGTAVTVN")
136

Kindly indicate its recorded % double-positive cells vs WT. Item: Clone C variant 13 VNAR-hFc (Fc fusion, not shown: a dimerising Fc or GST, also called Clone C v13; Clone C var; 13) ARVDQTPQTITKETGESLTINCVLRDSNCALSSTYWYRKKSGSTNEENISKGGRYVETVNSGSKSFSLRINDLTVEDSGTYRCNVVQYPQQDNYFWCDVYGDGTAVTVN
77

Return reported % double-positive cells vs WT. Input binder: Clone C variant 18 VNAR-hFc (Fc fusion, not shown: a dimerising Fc or GST, also called Clone C v18; Clone C var; 18) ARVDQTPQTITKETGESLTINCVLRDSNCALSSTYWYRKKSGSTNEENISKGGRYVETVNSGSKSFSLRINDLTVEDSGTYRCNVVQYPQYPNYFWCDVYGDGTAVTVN
129

Note down % double-positive cells vs WT recorded for 8D3 antibody (anti-mouse TfR-1 control; 8D3-hFc formatted antibody) (antibody, V domains shown) VH: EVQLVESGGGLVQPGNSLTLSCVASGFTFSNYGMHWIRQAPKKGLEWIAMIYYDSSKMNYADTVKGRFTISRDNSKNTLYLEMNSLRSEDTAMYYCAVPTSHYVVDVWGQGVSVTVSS VL: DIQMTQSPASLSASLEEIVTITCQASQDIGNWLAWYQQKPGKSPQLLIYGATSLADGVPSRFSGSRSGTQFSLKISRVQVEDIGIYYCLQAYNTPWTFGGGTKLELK
31
